System: Human osteosarcoma U20S cells
protocol_text: Assay to measure lysosome and autolysosome formation (acidic vesicle formation, LysoView/LysoTracker staining)
Assay type: cell-based
assay_setup: Homo sapiens; U2OS cells, concentration of 0.8 μM; read-out: Activity (percentage increase in acidic vesicle formation over the DMSO-treated control), Table 2
# reported activation at 0.8 µM; entries follow
measured_attribute: activation at 0.8 µM

>>> df
                               query_smiles                   study_system  test_value
0  CCCN(C(=O)c1csc(-c2cnn(-c3ccc(Cl)cc3)c2)n1)[C@@H]1CCNC1  Human osteosarcoma U20S cells   10 to 30%
1  CCCN(C(=O)c1csc(-c2cnn(-c3cccc(OC)c3)c2)n1)[C@H]1CCNC1  Human osteosarcoma U20S cells   30 to 50%
2  CCCN(C(=O)c1csc(-c2ccc(-c3ccccc3)s2)n1)[C@H]1CCNC1  Human osteosarcoma U20S cells   30 to 50%
3  NCCCCCNC(=O)c1cc(-c2cnn(-c3ccccc3)c2)cs1  Human osteosarcoma U20S cells   10 to 30%
4  CCCN(C(=O)c1csc(-c2cnn(-c3cccc(OC(F)(F)F)c3)c2)n1)[C@H]1CCNC1  Human osteosarcoma U20S cells   10 to 30%
5  NCCOCCNC(=O)c1cc(-c2cnn(-c3ccccc3)c2)cs1  Human osteosarcoma U20S cells  50 to 100%
6  CCCN(C(=O)c1csc(-c2cnn(-c3ccccc3Cl)c2)n1)[C@@H]1CCNC1  Human osteosarcoma U20S cells   10 to 30%
7  O=C(NCC1CCNCC1)c1csc(-c2cnn(-c3ccccc3)c2)n1  Human osteosarcoma U20S cells   10 to 30%

Cited source for all entries: patent US20250049776A1
